# subject-of-test: T1, AFP p26 (human, UniProt P02771 381-609)
# T1 construct: The construct used is not described
# T1 sequence: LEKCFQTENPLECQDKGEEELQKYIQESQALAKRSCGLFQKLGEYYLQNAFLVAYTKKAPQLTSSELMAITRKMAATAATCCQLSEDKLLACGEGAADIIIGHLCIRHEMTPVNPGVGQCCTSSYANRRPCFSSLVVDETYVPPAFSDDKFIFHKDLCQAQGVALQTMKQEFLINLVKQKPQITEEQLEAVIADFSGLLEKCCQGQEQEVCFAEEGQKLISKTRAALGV
# measurement-description: phage ELISA, A450 target/A450 IgG1-Fc
Property: ELISA_avg; scope: individual binders
Numbers only here, please. The scale is ratio.

Please review the following examples before continuing.
- binder: "SEQ ID NO 809 (designed binder) MGSWVEFYHRLDAIFDRLDALGGSEAELAAFEKEIAAFESELQAYKGKGNPEVEELRANAAGIRSWLQAYRHN"
  units: "ratio"
  ELISA_avg: 20
- binder: "SEQ ID NO 870 (designed binder) MGSWKNFKLELALIKSKLEALGGSEAELAQFEADIAFFEWSLQWYKGKGNPEVEALRKEAAAIRDELQAYRHN"
  units: "ratio"
  ELISA_avg: 20.6
- binder: "SEQ ID NO 741 (designed binder) MGSWHEFYDRLDAIYFRLWALGGSEAELAAFEKEIAAFESELQAYKGKGNPEVELLRLLAAEIRKELQAYRHN"
  units: "ratio"
  ELISA_avg: 9.6
- binder: "SEQ ID NO 777 (designed binder) MGSWTEFWHRLEAIDSRLWALGGSEAELAAFEKEIAAFESELQAYKGKGNPEVESLREHAAHIRVWLQAYRHN"
  units: "ratio"
  ELISA_avg: 13.2

Consider SEQ ID NO 873 (designed binder) MGSWDQFKNSLASIKRVLEALGGSEAELAIFEVKIAHFEHFLQQYKGKGNPEVEALRKEAAAIRDELQAYRHN . Its measured ELISA_avg is 15.6
